Please respond with reported NADPH fluorescence slope for every item in the list.
target: Voltage-gated potassium channel subunit beta-2 (Rattus norvegicus) (UniProt P62483); assay: enhancers of rat Kvbeta2 NADPH turnover – biochemical, NADPH fluorescence, primary screen (AID 623); settings: Recombinant KvBeta, NADPH fluorescence decrease slope, 10 min; at 10 µM; hits give low values;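 note: fluorescence intensity change per second fitted from 20 to 320 s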
Sequence (P62483 whole entry, looked up): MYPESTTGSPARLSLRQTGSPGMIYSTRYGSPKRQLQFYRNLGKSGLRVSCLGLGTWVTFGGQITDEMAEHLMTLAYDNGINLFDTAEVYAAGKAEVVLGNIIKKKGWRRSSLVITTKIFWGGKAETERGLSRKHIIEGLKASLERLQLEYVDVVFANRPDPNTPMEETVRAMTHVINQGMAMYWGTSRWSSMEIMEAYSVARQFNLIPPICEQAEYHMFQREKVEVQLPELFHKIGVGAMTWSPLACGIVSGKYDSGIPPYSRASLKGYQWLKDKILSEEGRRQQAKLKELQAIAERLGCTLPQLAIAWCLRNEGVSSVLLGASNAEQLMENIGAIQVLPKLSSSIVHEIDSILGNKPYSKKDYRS
// no unit, no text: just the number

Query :: Item under review: Oc1c(Cl)cc(Cl)cc1Sc1cc(Cl)cc(Cl)c1O . Reported NADPH fluorescence slope?
Result :: -6e-05

Query :: Item under review: COc1cc(NC(=O)c2ccc(COCC(F)(F)F)o2)cc(OC)c1OC . Reported NADPH fluorescence slope?
Result :: -4.6e-05

Query :: Item under review: CC1(C)CC(=O)c2cc(OCC(=O)NCCCN3CCN(c4ccccc4F)CC3)ccc2O1 . Reported NADPH fluorescence slope?
Result :: 3e-05

Query :: Item under review: COc1ccc(-c2noc(CN3C(=O)c4ccccc4C3=O)n2)cc1 . Reported NADPH fluorescence slope?
Result :: -4.8e-05

Query :: Item under review: O=C(Cn1ccc2ccccc2c1=O)NCCC(=O)NC1CCN(Cc2ccccc2)CC1 . Reported NADPH fluorescence slope?
Result :: -0.000203

Query :: Item under review: COc1cccc2cc(C(=O)Nc3cccnc3N3CCOCC3)c(=O)oc12 . Reported NADPH fluorescence slope?
Result :: 1.5e-05

Query :: Item under review: CCOC(=O)C1CCCN(c2cc(=O)n(Cc3ccc(F)cc3)c(=O)[nH]2)C1 (stereo not given) . Reported NADPH fluorescence slope?
Result :: -1.6e-05

Query :: Item under review: Cc1c(Br)c(C(F)(F)F)nn1CC(=O)NCCN1CCOCC1 . Reported NADPH fluorescence slope?
Result :: -5.2e-05

Query :: Item under review: Cn1c(=O)c2c(nc(N3CCCCC3)n2CCSc2nc3ccccc3o2)n(C)c1=O . Reported NADPH fluorescence slope?
Result :: 4.5e-05

Query :: Item under review: Cc1ccc(Cn2nnc3c(=O)n(CC(=O)NCC4CCCO4)cnc32)cc1 (stereo not given) . Reported NADPH fluorescence slope?
Result :: -4.1e-05

* * *

Please respond with reported inhibition for every item in the list.
experiment: TLR3 IRF3 reporter activation blockers – cell-based, poly I:C stimulus, luciferase, 10K MLSCN set, primary screen (AID 602277); details: HEK293-TLR3 RL24 IRF3 luciferase reporter, at 10 µM, hits give high values
Respond numerically; units are % and should not be typed.

Query :: Item under review: Cn1c(=O)c2c(nc(SCc3nn[nH]n3)n2Cc2ccccc2F)n(C)c1=O . Reported inhibition?
Result :: 17.9

Query :: Item under review: Cc1ccccc1S(=O)(=O)Cc1ccc(C(=O)NCc2cccnc2)o1 . Reported inhibition?
Result :: 19.4

Query :: Item under review: CC(C)CCNC(=O)NC(=O)CSc1nnc(COc2ccccc2Cl)o1 . Reported inhibition?
Result :: 21

Query :: Item under review: CCOC(=O)c1nnn(-c2nonc2NC(C)=O)c1C . Reported inhibition?
Result :: 14

Query :: Item under review: O=C(O)c1ccccc1C(=O)Nc1ccccc1 . Reported inhibition?
Result :: 8.4

Query :: Item under review: COCCn1c(SCC(=O)Nc2nnc(C)s2)nnc1-c1ccncc1 . Reported inhibition?
Result :: -2.25

Query :: Item under review: O=C(Cn1nnc(-c2cccc(C(F)(F)F)c2)n1)NC(=O)NCc1ccco1 . Reported inhibition?
Result :: 5.76

Query :: Item under review: COc1ccccc1CN1CC(C(=O)N2CCN(c3ccc(F)cc3)CC2)CC1=O (centres undefined) . Reported inhibition?
Result :: 7.05

Query :: Item under review: Cc1nc2sc3c(c2c(=O)o1)CCC3 . Reported inhibition?
Result :: 22.8

Query :: Item under review: Cc1ccccc1-c1noc(N)c1C#N . Reported inhibition?
Result :: -2.11

Query :: Item under review: COc1cc2c(OC)cccc2cc1C(=O)O . Reported inhibition?
Result :: 8.81

Query :: Item under review: COc1ccc(OC(C)C(=O)N2CC(C)OC(C)C2)cc1 (centres undefined) . Reported inhibition?
Result :: 30.8

Query :: Item under review: O=P(O)(O)c1ccccc1OCCOCCOc1ccccc1P(=O)(O)O . Reported inhibition?
Result :: 15.3

Query :: Item under review: CCOC(=O)c1c(NC(=O)c2ccoc2C)sc2c1CCC2 . Reported inhibition?
Result :: -10.1

Query :: Item under review: CN(C)CCCN1c2ccccc2Sc2ccc(C(F)(F)F)cc21 . Reported inhibition?
Result :: 38.3

Query :: Item under review: COc1cccc(N2CCN(c3c4c(nc5ncnn35)CCC4)CC2)c1 . Reported inhibition?
Result :: -39.1

Query :: Item under review: COc1ccccc1C1/C(=C(\O)c2c(C)nc3c(C)cccn23)C(=O)C(=O)N1CCCN(C)C (centres undefined) . Reported inhibition?
Result :: 20.7

Query :: Item under review: Cc1cccc(CS(=O)(=O)Cc2ccc(C(=O)NCC3CCCO3)o2)c1 (centres undefined) . Reported inhibition?
Result :: 8.02

Query :: Item under review: Cc1cc(-c2ccccc2)c2c3c(cn2n1)c(=O)n(C)c(=O)n3C . Reported inhibition?
Result :: 27.8

Query :: Item under review: COc1cc(NS(=O)(=O)c2ccc(N)cc2)ncn1 . Reported inhibition?
Result :: 32.2

Query :: Item under review: O=c1c(-c2ccc(F)cc2)coc2c3c(ccc12)OCCO3 . Reported inhibition?
Result :: -86.4

Query :: Item under review: CN(C)CC(=O)N1c2ccccc2CCc2ccc(NC(=O)c3ccc(N)cc3)cc21 . Reported inhibition?
Result :: 26.6

Query :: Item under review: O=C(NC1CC2CCC1C2)C1COc2ccccc2O1 (centres undefined) . Reported inhibition?
Result :: -2.86

Query :: Item under review: Cc1nc(=S)n(-c2ccccc2)[nH]1 . Reported inhibition?
Result :: 10.6

* * *

Please respond with reported inhibition for every item in the list.
assay: loss of swimming-algae plug formation – whole organism, Chlamydomonas reinhardtii, WT vs cilia-less mutant, absorbance, 96-well, primary screen (AID 463189); settings: Chlamydomonas reinhardtii gravitaxis, OD600 absorbance, 2 days; at 10 µM; hits give high values;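 note: 0% = wild type cc124 cells in DMSO and 100% = ciliumless bld1 mutant cells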
Active and inactive are the calls of the source.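 How the source made its calls: active means inhibition at or above 50% relative to wild type and mutant plate controls; inactive means inhibition below 50%.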

Query :: Item under review: NC(N)=NC(N)=Nc1cccc(Cl)c1 . Reported inhibition?
Result :: 4.09% (inactive)

Query :: Item under review: NCC(O)C1CCCCCCC1 (configuration not stated) . Reported inhibition?
Result :: 2.73% (inactive)

Query :: Item under review: CC1(C)C(=O)N(CCN2CCC(C(=O)c3ccc(F)cc3)CC2)c2ccccc21 . Reported inhibition?
Result :: 5.57% (inactive)

Query :: Item under review: Nc1cc(Cl)c(NC2=NCCN2)c(Cl)c1 . Reported inhibition?
Result :: -3.5% (inactive)

Query :: Item under review: COc1ccccc1N1CCN(CCN(C(=O)c2ccc(F)cc2)c2ccccn2)CC1 . Reported inhibition?
Result :: 0.605% (inactive)

Query :: Item under review: COc1cc([C@@H]2c3cc4c(cc3[C@H](O)C3COC(=O)[C@@H]32)OCO4)cc(OC)c1OC (some centres not stated) . Reported inhibition?
Result :: 0.089% (inactive)

Query :: Item under review: O[Si](CCCN1CCCCC1)(c1ccc(F)cc1)C1CCCCC1 (configuration not stated) . Reported inhibition?
Result :: -1.85% (inactive)

Query :: Item under review: NC(N)=N/N=C/c1c(Cl)cccc1Cl . Reported inhibition?
Result :: 3.64% (inactive)

Query :: Item under review: CC(N)=NCc1cccc(CN)c1 . Reported inhibition?
Result :: 7.48% (inactive)

Query :: Item under review: CCOC(=O)Nc1ccc(NCc2ccc(F)cc2)nc1N . Reported inhibition?
Result :: 3.93% (inactive)

Query :: Item under review: O=C(O)CN(CCN(CC(=O)O)CC(=O)O)CCN(CC(=O)O)CC(=O)O . Reported inhibition?
Result :: 6.57% (inactive)

Query :: Item under review: COc1ccc(-c2coc3cc(O)cc(O)c3c2=O)cc1 . Reported inhibition?
Result :: -12.4% (inactive)

* * *

assay: loss of swimming-algae plug formation – whole organism, Chlamydomonas reinhardtii, WT vs cilia-less mutant, absorbance, 96-well, primary screen (AID 463189); conditions: Chlamydomonas reinhardtii gravitaxis, OD600 absorbance, 2 days; at 10 µM; hits give high values;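 note: 0% = wild type cc124 cells in DMSO and 100% = ciliumless bld1 mutant cells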
METRIC NAME: inhibition (%)
Respond numerically; units are % and should not be typed.

Query :: Item under review: CSc1nc(N)c2ncn([C@@H]3O[C@H](COP(=O)(O)OP(=O)(O)O)[C@H](O)C3O)c2n1 (some centres undefined) . Reported inhibition?
Result :: 6.63

Query :: Item under review: O=C(Nc1cccc(C(=O)Nc2ccc(S(=O)(=O)O)c3cc(S(=O)(=O)O)cc(S(=O)(=O)O)c23)c1)Nc1cccc(C(=O)Nc2ccc(S(=O)(=O)O)c3cc(S(=O)(=O)O)cc(S(=O)(=O)O)c23)c1 . Reported inhibition?
Result :: 1.9

Query :: Item under review: COc1cc(C2Oc3cc(C4Oc5cc(O)cc(O)c5C(=O)C4O)ccc3OC2CO)ccc1O (centres undefined) . Reported inhibition?
Result :: -8.52

Query :: Item under review: O=c1[nH]c2cc(Cl)ccc2c(O)c1-c1ccc(Oc2ccccc2)cc1 . Reported inhibition?
Result :: 5.4

Query :: Item under review: O=C(Oc1oc(-c2ccco2)nc1C=Nc1ccccc1)c1ccoc1 . Reported inhibition?
Result :: 8.33

Query :: Item under review: COc1ccc(NC(=O)c2ccc(-c3ccc(-c4noc(C)n4)cc3C)cc2)cc1N1CCN(C)CC1 . Reported inhibition?
Result :: 47.6

Query :: Item under review: COc1cc(NS(C)(=O)=O)ccc1Nc1c2ccccc2nc2ccccc12 . Reported inhibition?
Result :: -1.97

Query :: Item under review: CNCCC(Oc1ccccc1C)c1ccccc1 (centres undefined) . Reported inhibition?
Result :: 10.9

Query :: Item under review: NO . Reported inhibition?
Result :: -14.1

Query :: Item under review: CC(=O)c1ccc(S(=O)(=O)NC(=O)NC2CCCCC2)cc1 . Reported inhibition?
Result :: -5.49

Query :: Item under review: Nc1ccc(N2C(=O)c3ccccc3C2=O)c(Cl)c1 . Reported inhibition?
Result :: -0.463

Query :: Item under review: CSc1ccc(C(=O)c2[nH]c(=O)[nH]c2C)cc1 . Reported inhibition?
Result :: -1.05

Query :: Item under review: Cc1nnc(NS(=O)(=O)c2ccc(N)cc2)s1 . Reported inhibition?
Result :: -0.666

Query :: Item under review: Cn1c(=O)c2[nH]c(C3CCCC3)nc2n(C)c1=O . Reported inhibition?
Result :: -2.05

Query :: Item under review: Cn1c(=O)c2c(ncn2CC(O)CO)n(C)c1=O (centres undefined) . Reported inhibition?
Result :: 8.88

Query :: Item under review: O=c1[nH]c2ccccc2c2ccccc12 . Reported inhibition?
Result :: 6.93

Query :: Item under review: NC(=O)C(=O)O . Reported inhibition?
Result :: 0.681

Query :: Item under review: NC(N)=NC(=O)c1nc(Cl)c(N2CCCCCC2)nc1N . Reported inhibition?
Result :: -1.07

Query :: Item under review: O=C1N=C(O)CN1/N=C/c1ccc(-c2ccc([N+](=O)[O-])cc2)o1 . Reported inhibition?
Result :: 4.87

Query :: Item under review: CNCCC(Oc1ccccc1OC)c1ccccc1 (centres undefined) . Reported inhibition?
Result :: 13.4

Query :: Item under review: CN(C)/C=C1\N=C(c2cccs2)OC1=O . Reported inhibition?
Result :: 26.8

Query :: Item under review: CCC(=O)N1CCN(C(=O)c2ccccc2)CC1 . Reported inhibition?
Result :: 0.644

Query :: Item under review: O=C(Nc1ccccc1)c1cc([N+](=O)[O-])ccc1Cl . Reported inhibition?
Result :: 2.4

Query :: Item under review: C[N+](C)(C)CCOC(N)=O . Reported inhibition?
Result :: 7.07
